# Tested on: SK-OV-3 ovarian
# test.method.notes: NCI-60 one-dose screen, 48 h (100 = growth as untreated, 0 = no growth, -100 = all killed)
# study.conditions: 10 µM
# Method: Growth inhibition of the SK-OV-3 human tumor cell line is measured as a screen for anti-cancer activity. Cells are grown in 96 well plates and exposed to the test compound for 48 hours. Compounds are tested at a single concentration, which is 10^-5 M for most compounds. The reported endpoint is percent growth (GI% or GIPRCNT), where numbers from 0 - 100% represent growth inhibition, and numbers from -100% - 0 represent cell death. For example, a value of 40 represents 60% growth inhibition. […]
Compounds without any hit were thinned out: in the full panel of roughly 83,000, 20% have a hit.
Quick list: growth per entry.
Number only, in %; omit the unit.

CC(C)=CCc1cc(O)cc2c1OC(C=C(C)C)C1=C2C(=O)C2=C(C1=O)S(=O)(=O)CCN2 (centres undefined) : 84.7
Cc1cc(N(CCCNc2ccnc3cc(Cl)ccc23)Cc2ccc3c(c2)OCO3)nc(N2CCOCC2)n1 : 90.5
CSc1nn(-c2ccccc2)c2ncnc(Oc3ccc(C)cc3)c12 : 75.2

Kindly consider the entry below.
Input line: Hello, please tell me recorded growth for this one: COc1ccc(C2CC(c3ccc(N(C)C)cc3)=NN2c2ccc(S(N)(=O)=O)cc2)cc1 (centres undefined)
Output line: 70.3

----------
# System: ACHN renal
# test.method.notes: NCI-60 one-dose screen, 48 h
# study.conditions: 10 µM
The panel holds about 83,000 compounds, 20% with a hit somewhere; the sample as a whole holds those more often. Active and inactive are the calls of the source. The calls were made as follows: active = growth percent below 10; inactive = the rest.
Field 'call' accepts yes (active), no (inactive)

Recorded results for 3 compounds are shown here.
O=C1/C(=C\c2ccccc2)CN(C(=O)c2ccccc2)C/C1=C\c1ccccc1 : yes
Cc1ccc(NC(=O)Nc2cccnc2)cc1NC(=O)Nc1cccnc1 : no
NC(=O)c1ccc(-c2cccc3c(=O)nc(N4CCOCC4)oc23)cc1 : no

Input line: Query: recorded result category for c1ccc(CNc2ncnc3scc(-c4cccs4)c23)nc1 in this test
Output line: no

----------
Quick list: growth per entry.
# Test system: KM12 colon
# test.method.notes: NCI-60 one-dose screen, 48 h (100 = growth as untreated, 0 = no growth, -100 = all killed)
# study.conditions: 10 µM
Compounds without any hit were thinned out: in the full panel of roughly 83,000, 20% have a hit.
Number only, in %; omit the unit.

COc1cc(Cc2cc(-c3ccc(Cl)cc3)n[nH]c2=O)ccc1O : 105

Input line: Hello, please tell me recorded growth for this one: COc1ccc(-c2nn(-c3cccc(NC(=O)Nc4ccc(Cl)c(C(F)(F)F)c4)c3)cc2-c2ccncc2)cc1Cl
Output line: 4

Input line: Hello, please tell me recorded growth for this one: C(CCCC1=NCCO1)CCCC1=NCCO1
Output line: 103

Input line: Hello, please tell me recorded growth for this one: CC1(O)CCC2CC3OC3(C)CCC3OC3(C)CCC1C2(C)C (centres undefined)
Output line: 111

Input line: Hello, please tell me recorded growth for this one: COc1cc(Nc2ccnc(NCCCNc3ccnc4cc(Cl)ccc34)n2)cc(OC)c1
Output line: 47.1

----------
# System: SNB-19 CNS
# test.method.notes: NCI-60 one-dose screen, 48 h
# study.conditions: 10 µM
This is part of a sample that, as a whole, favours compounds with a hit. Of some 83,000 tested, about 20% had one in any assay. The source made the active and inactive calls. The calls were made as follows: active = growth percent below 10; inactive = the rest.
Field 'call' accepts active, inactive

CCN1CCC(CCOC)(CN2c3ccccc3Sc3ccc(Cl)cc32)C1 (stereo not drawn) : inactive
N=C(N)c1ccc(-c2ccc(-c3cccs3)s2)cc1 : inactive
O=C(Nc1ccccc1)Nc1cccc(-n2cc(-c3ccncc3)c(-c3ccc(O)c(Cl)c3)n2)c1 : inactive
Fc1ccc(-c2nnc(-c3c(-c4ccc(F)cc4)nc4ccccn34)o2)cc1 : inactive
O=[P@@]1(c2ccccc2)O[C@H](COCc2ccccc2)[C@@H](OCc2ccccc2)[C@H](OCc2ccccc2)[C@H]1O : inactive

Input line: Query: recorded result category for CCCCCCCCCCCCCCCCCC(=O)OCCCCCCC in this test
Output line: inactive
